# assay_text: NCI Yeast Anticancer Drug Screen. Data for the bub3 strain (AID 167)
# experimental_setup: S. cerevisiae bub3 mutant strain, at 50.0 µM, stronger effect = higher value
This is part of a sample that, as a whole, favours compounds with a hit. Of some 79,000 tested, about 15% had one in any assay.
growth inhibition by entry:
readout_kind: growth inhibition (%)

[[record]]
compound = "CC(C)C(O)C[N+](=O)[O-] (stereo not drawn)"
readout_kind = "growth inhibition"
recorded_result = 13.6

[[record]]
compound = "O=C(C[n+]1ccccc1Cl)c1ccc(I)cc1"
readout_kind = "growth inhibition"
recorded_result = 19.9

[[record]]
compound = "COc1ccc(OC)c(COC(=O)c2ccccc2)c1COC(=O)c1ccccc1"
readout_kind = "growth inhibition"
recorded_result = 1.6

[[record]]
compound = "CCN(CC)Cc1ccccc1COC(=O)c1ccc(OC)cc1"
readout_kind = "growth inhibition"
recorded_result = -7.25

[[record]]
compound = "COc1ccc2c(c1)C/C(=C\\c1cccc3ccccc13)C2=O"
readout_kind = "growth inhibition"
recorded_result = 28.1

[[record]]
compound = "O=c1c2ccccc2n2c(-c3ccccc3O)nnc2n1-c1ccccc1"
readout_kind = "growth inhibition"
recorded_result = 6.6

[[record]]
compound = "CCCCC(C)(O)CCC (stereo not drawn)"
readout_kind = "growth inhibition"
recorded_result = 7.3

[[record]]
compound = "O=P(CCC(F)(F)C(F)(F)C(F)(F)C(F)(F)C(F)(F)C(F)(F)C(F)(F)F)(N1CC1)N1CC1"
readout_kind = "growth inhibition"
recorded_result = -1.2

[[record]]
compound = "CC(=O)Oc1cc(I)cc(C(=O)O)c1"
readout_kind = "growth inhibition"
recorded_result = 3.3

[[record]]
compound = "COc1cc([C@@H]2OC[C@@H]3C(c4cc(OC)c5c(c4)OCO5)OC[C@@H]32)cc(OC)c1OC (stereo partly drawn)"
readout_kind = "growth inhibition"
recorded_result = 4.3

[[record]]
compound = "COc1cccc(C(F)(F)F)c1"
readout_kind = "growth inhibition"
recorded_result = 19.4

[[record]]
compound = "OC1CCOc2ccccc21 (stereo not drawn)"
readout_kind = "growth inhibition"
recorded_result = -14.8

[[record]]
compound = "CN(N=O)C(N)=NC(=O)c1ccccc1"
readout_kind = "growth inhibition"
recorded_result = -16.1

[[record]]
compound = "O=c1[nH]cc(NS(=O)(=O)O)c(=O)[nH]1"
readout_kind = "growth inhibition"
recorded_result = 2.95

[[record]]
compound = "CC(O)CN1CCOCC1 (stereo not drawn)"
readout_kind = "growth inhibition"
recorded_result = -9.85

[[record]]
compound = "N#C/C(=C\\c1ccccc1Br)C(=O)c1ccccc1"
readout_kind = "growth inhibition"
recorded_result = -12.8

[[record]]
compound = "O=C1C(O)=C(Cl)C(=O)C(O)=C1Cl.[Zn+2]"
readout_kind = "growth inhibition"
recorded_result = -16.9

[[record]]
compound = "Cc1ccc2c(=O)[nH]cnc2c1"
readout_kind = "growth inhibition"
recorded_result = 2

[[record]]
compound = "COC(OC)c1cc(C(=O)O)c2ccccc2n1"
readout_kind = "growth inhibition"
recorded_result = -22.2

[[record]]
compound = "S=C(N1CCN(c2cccc(Cl)c2)CC1)N1CCN(c2cccc(Cl)c2)CC1"
readout_kind = "growth inhibition"
recorded_result = 2.1

[[record]]
compound = "Cn1cnc(=S)c2ccccc21"
readout_kind = "growth inhibition"
recorded_result = 0.8

[[record]]
compound = "c1cc2c(cc1CC1CO1)OCO2 (stereo not drawn)"
readout_kind = "growth inhibition"
recorded_result = -22.5

[[record]]
compound = "OC1(c2ccccc2)c2ccccc2NC2=NCCN21 (stereo not drawn)"
readout_kind = "growth inhibition"
recorded_result = -45.9

[[record]]
compound = "CCSc1nc(C)c(C)c(=O)[nH]1"
readout_kind = "growth inhibition"
recorded_result = 21.8

[[record]]
compound = "Oc1cc(-c2ccc(Cl)cc2)cn2c1nc1ccccc12"
readout_kind = "growth inhibition"
recorded_result = -5.75

[[record]]
compound = "O=C(O)/C=C(/Oc1ccccc1)c1ccccc1"
readout_kind = "growth inhibition"
recorded_result = -19.8

[[record]]
compound = "O/N=C(\\C(=N/O)Nc1ccc(-c2ccc(NC(=N/O)/C(=N\\O)c3ccccc3)cc2)cc1)c1ccccc1"
readout_kind = "growth inhibition"
recorded_result = -14.4

[[record]]
compound = "O=C(NC(=S)Nc1cccc2ccccc12)c1ccccc1F"
readout_kind = "growth inhibition"
recorded_result = 44

